src = patent US20230071978A1

# STUDY TARGET: R132H_S280F mutant IDH1 (Homo sapiens, UniProt O75874, R132H/S280F)
# Construct: myc; expressed in transfected cells; host or cells: Ba/F3 (DSMZ ACC 300), stably transfected
# Sequence (O75874 whole entry R132H/S280F): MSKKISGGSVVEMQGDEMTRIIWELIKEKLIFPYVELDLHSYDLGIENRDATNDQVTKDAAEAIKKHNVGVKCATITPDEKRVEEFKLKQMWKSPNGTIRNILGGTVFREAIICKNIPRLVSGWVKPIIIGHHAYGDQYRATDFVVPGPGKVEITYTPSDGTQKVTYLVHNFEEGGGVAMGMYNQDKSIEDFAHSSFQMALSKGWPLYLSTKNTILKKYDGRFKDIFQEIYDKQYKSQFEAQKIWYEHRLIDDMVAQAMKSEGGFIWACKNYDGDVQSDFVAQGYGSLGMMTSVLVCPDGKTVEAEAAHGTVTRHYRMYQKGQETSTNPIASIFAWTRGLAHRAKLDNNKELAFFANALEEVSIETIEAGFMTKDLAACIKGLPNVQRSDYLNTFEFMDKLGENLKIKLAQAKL
# PROTOCOL DESCRIPTION: 2-HG cell-based inhibition assay, U87MG R132H_S280F
# ASSAY SETUP: Cell line construct U87MG R132H_S280F; 2-HG by LC-MS
READOUT NAME: pIC50
# pIC50 = -log10(concentration in molar units)

Request: # pIC50 lookup, item C=CC(=O)N1CCN([C@@H](CC2CC2)c2ccc([C@H](C)Nc3ncc4c(n3)N(CC)C(=O)OC4)cc2)CC1
Response: 8.59

====

# STUDY TARGET: IDH1R132H_R119P cis (Homo sapiens, UniProt O75874, R119P/R132H)
# Construct: expressed in transfected cells; host or cells: U-87 MG (ATCC HTB-14)
# PROTOCOL DESCRIPTION: 2-HG cell-based inhibition assay, U87MG IDH1R132H_R119P cis
# ASSAY SETUP: Cell line construct U87MG IDH1R132H_R119P cis; 2-HG by LC-MS
READOUT NAME: pIC50
# pIC50 = -log10(concentration in molar units)

Request: Field: pIC50 (IDH1R132H_R119P cis (Homo sapiens, UniProt O75874, R119P/R132H)). Entry: C=CC(=O)N1CCN([C@@H](CC2CC2)c2ccc([C@H](C)Nc3ncc4c(n3)N(CC)C(=O)OC4)cc2)CC1
Response: 8.60

====

# STUDY TARGET: IDH1R132L_G131A cis (Homo sapiens, UniProt O75874, G131A/R132L)
# Sequence (O75874 whole entry G131A/R132L): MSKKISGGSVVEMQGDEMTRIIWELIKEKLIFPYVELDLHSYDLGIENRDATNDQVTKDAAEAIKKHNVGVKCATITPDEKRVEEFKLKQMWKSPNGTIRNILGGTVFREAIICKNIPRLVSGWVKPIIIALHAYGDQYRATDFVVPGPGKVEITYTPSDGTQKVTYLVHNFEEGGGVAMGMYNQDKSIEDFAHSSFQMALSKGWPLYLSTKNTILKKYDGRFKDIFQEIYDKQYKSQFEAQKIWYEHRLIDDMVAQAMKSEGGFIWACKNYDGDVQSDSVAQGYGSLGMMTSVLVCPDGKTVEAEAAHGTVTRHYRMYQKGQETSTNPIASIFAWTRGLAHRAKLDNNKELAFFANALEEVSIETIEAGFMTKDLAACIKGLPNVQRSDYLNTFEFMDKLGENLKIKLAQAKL
# PROTOCOL DESCRIPTION: 2-HG cell-based inhibition assay, U87MG IDH1R132L_G131A cis
# ASSAY SETUP: Cell line construct U87MG IDH1R132L_G131A cis; 2-HG by LC-MS
READOUT NAME: IC50 (µM)
Answer with a number only, understood to be in µM.

Request: # IC50 lookup, item C=CC(=O)N1CCN([C@@H](CC2CC2)c2ccc([C@H](C)Nc3ncc4c(n3)N(CC)C(=O)OC4)cc2)CC1
Response: 0.0645

====

# STUDY TARGET: IDH1R132H_H315D cis (Homo sapiens, UniProt O75874, H315D/R132H)
# Construct: expressed in transfected cells; host or cells: U-87 MG (ATCC HTB-14)
# PROTOCOL DESCRIPTION: 2-HG cell-based inhibition assay, U87MG IDH1R132H_H315D cis
# ASSAY SETUP: Cell line construct U87MG IDH1R132H_H315D cis; 2-HG by LC-MS
READOUT NAME: pIC50
# pIC50 = -log10(concentration in molar units)

Request: # pIC50 lookup, item C=CC(=O)N1CCN([C@@H](CC2CC2)c2ccc([C@H](C)Nc3ncc4c(n3)N(CC)C(=O)OC4)cc2)CC1
Response: 8.83

====

# STUDY TARGET: IDH1R132H_D279N cis (Homo sapiens, UniProt O75874, D279N/R132H)
# PROTOCOL DESCRIPTION: 2-HG cell-based inhibition assay, U87MG IDH1R132H_D279N cis
# ASSAY SETUP: Cell line construct U87MG IDH1R132H_D279N cis; 2-HG by LC-MS
READOUT NAME: IC50
Phrase the answer as number then unit, nothing more needed.

Request: # IC50 lookup, item C=CC(=O)N1CCN([C@@H](CC2CC2)c2ccc([C@H](C)Nc3ncc4c(n3)N(CC)C(=O)OC4)cc2)CC1
Response: 13.8 nM

====

# STUDY TARGET: IDH1R132C_R119P cis (Homo sapiens, UniProt O75874, R119P/R132C)
# Sequence (O75874 whole entry R119P/R132C): as the sequence (O75874 whole entry G131A/R132L) above, with R119P, A131G, L132C counted along it
# PROTOCOL DESCRIPTION: 2-HG cell-based inhibition assay, U87MG IDH1R132C_R119P cis
# ASSAY SETUP: Cell line construct U87MG IDH1R132C_R119P cis; 2-HG by LC-MS
READOUT NAME: pIC50
# pIC50 = -log10(concentration in molar units)

Request: # pIC50 lookup, item C=CC(=O)N1CCN([C@@H](CC2CC2)c2ccc([C@H](C)Nc3ncc4c(n3)N(CC)C(=O)OC4)cc2)CC1
Response: 7.98

====

# STUDY TARGET: IDH1R132C_G131A cis (Homo sapiens, UniProt O75874, G131A/R132C)
# PROTOCOL DESCRIPTION: 2-HG cell-based inhibition assay, U87MG IDH1R132C_G131A cis
# ASSAY SETUP: Cell line construct U87MG IDH1R132C_G131A cis; 2-HG by LC-MS
READOUT NAME: IC50 (nM)
Answer with a number only, understood to be in nM.

Request: Field: IC50 (IDH1R132C_G131A cis (Homo sapiens, UniProt O75874, G131A/R132C)). Entry: C=CC(=O)N1CCN([C@@H](CC2CC2)c2ccc([C@H](C)Nc3ncc4c(n3)N(CC)C(=O)OC4)cc2)CC1
Response: 25.6

====

# STUDY TARGET: IDH1R132C_H315D cis (Homo sapiens, UniProt O75874, H315D/R132C)
# PROTOCOL DESCRIPTION: 2-HG cell-based inhibition assay, U87MG IDH1R132C_H315D cis
# ASSAY SETUP: Cell line construct U87MG IDH1R132C_H315D cis; 2-HG by LC-MS
READOUT NAME: pIC50
# pIC50 = -log10(concentration in molar units)

Request: # pIC50 lookup, item C=CC(=O)N1CCN([C@@H](CC2CC2)c2ccc([C@H](C)Nc3ncc4c(n3)N(CC)C(=O)OC4)cc2)CC1 [Compound A]
Response: 8.88

====

# STUDY TARGET: R132H mutant IDH1 (Homo sapiens, UniProt O75874, R132H)
# Construct: myc; expressed in transfected cells; host or cells: Ba/F3 (DSMZ ACC 300), stably transfected
# Sequence (O75874 whole entry R132H): as the sequence (O75874 whole entry G131A/R132L) above, with A131G, L132H counted along it
# PROTOCOL DESCRIPTION: 2-HG cell-based inhibition assay, Ba/F3 R132H
# ASSAY SETUP: Cell line construct Ba/F3 R132H; 2-HG in conditioned media by LC-MS
READOUT NAME: IC50 (nM)
Answer with a number only, understood to be in nM.

Request: # IC50 lookup, item C=CC(=O)N1CCN([C@@H](CC2CC2)c2ccc([C@H](C)Nc3ncc4c(n3)N(CC)C(=O)OC4)cc2)CC1
Response: 0.11

====

# STUDY TARGET: IDH1R132C_D279N cis (Homo sapiens, UniProt O75874, D279N/R132C)
# Sequence (O75874 whole entry R132C/D279N): as the sequence (O75874 whole entry G131A/R132L) above, with A131G, L132C, D279N counted along it
# PROTOCOL DESCRIPTION: 2-HG cell-based inhibition assay, U87MG IDH1R132C_D279N cis
# ASSAY SETUP: Cell line construct U87MG IDH1R132C_D279N cis; 2-HG by LC-MS
READOUT NAME: IC50

Request: Field: IC50 (IDH1R132C_D279N cis (Homo sapiens, UniProt O75874, D279N/R132C)). Entry: C=CC(=O)N1CCN([C@@H](CC2CC2)c2ccc([C@H](C)Nc3ncc4c(n3)N(CC)C(=O)OC4)cc2)CC1
Response: 102 nM
